Source listed as patent US20120121540A1.

- test.details: HCV replicon assay (luciferase reporter, ET cell line)
- Format: cell-based
- condition.label: Hepatitis C virus, HCV replicon luciferase activity in ET cells
Could you please report measured inhibition at 10 µM for the items listed next?
Numeric only. Scale: %

// query Record request: inhibition at 10 µM value, item COC(=O)[C@H]1[C@@H](c2ccccc2)CCN1C(=O)c1nc2c(C(F)(F)F)cc(-c3ccoc3)cn2c1Cl (stereo in doubt) [Compound 227]
// result 49.2

// query // returns reported inhibition at 10 µM for input O=C(c1nc2c(C(F)(F)F)cc(-c3ccoc3)cn2c1Cl)N1CC=C(c2cncnc2)CC1 [Compound 618]
// result 95.9

// query Suppose we examine the compound O=C(NCc1ccc(C(F)(F)F)cc1)c1nc2c(C(F)(F)F)cc(-c3ccco3)cn2c1Cl [Compound 181] ; what inhibition at 10 µM value has been reported?
// result 48.2

// query # input compound: O=C(c1nc2c(C(F)(F)F)cc(-c3ccco3)cn2c1Cl)N1CCC(c2ccc(F)cc2)C1 (stereo not shown) [Compound 316] ; wanted: its inhibition at 10 µM
// result 89.2

// query Can you share its inhibition at 10 µM? I mean this compound: O=C(c1nc2c(C(F)(F)F)cc(-c3ccoc3)cn2c1Cl)N1CCN(c2noc3ccccc23)CC1 [Compound 551]
// result 38.5

// query Fill in the blank: the reported inhibition at 10 µM of COC(=O)Cc1c(C(=O)N2CCC(c3ccc(F)cc3)C2)nc2c(C(F)(F)F)cc(-c3ccoc3)cn12 (stereo not shown) [Compound 235] is ____.
// result 96.6

// query Endpoint output: inhibition at 10 µM of O=C(c1cn2cc(-c3cn[nH]c3)cc(C(F)(F)F)c2n1)N1CC=C(c2nccs2)C1 [Compound 440] . Value?
// result 98.9

// query // lookup inhibition at 10 µM for N#Cc1cc(-c2ccccc2)cn2c(Br)c(C(=O)NCc3cccs3)nc12 [Compound 362]
// result 86.9

// query Please report the recorded inhibition at 10 µM for CC(C)(C)C#Cc1c(C(=O)NCc2cccs2)nc2c(C(F)(F)F)cc(-c3cccc(F)c3)cn12 [Compound 307] .
// result 33.5

// query Quick check: inhibition at 10 µM of Cc1nc(C)c(-c2cc(C(F)(F)F)c3nc(C(=O)NCc4cccs4)c(Cl)n3c2)s1 [Compound 289] ?
// result 30.3

// query inhibition at 10 µM for O=C(NCc1cccs1)c1nc2c(C(F)(F)F)cc(/C=C/c3ccccc3)cn2c1Cl [Compound 287] ?
// result 52.3

// query Which inhibition at 10 µM is listed for Cc1noc(Cc2c(C(=O)N3CCC(c4ccc(F)cc4)C3)nc3c(C(F)(F)F)cc(-c4ccoc4)cn23)n1 (stereo not shown) [Compound 243] ?
// result 86.2

// query Suppose we examine the compound O=C(NCc1cccs1)c1cc2cc(-c3ccco3)cc(Cl)n2n1 [Compound 145] ; what inhibition at 10 µM value has been reported?
// result 49.8

// query Would you kindly share the measured inhibition at 10 µM for O=C(NCc1cccs1)c1nc2c(C(F)(F)F)cc(-c3cn[nH]c3)cn2c1Br [Compound 376] ?
// result 98.8

// query Using the record for O=C(c1nc2c(C(F)(F)F)cc(-c3ccoc3)cn2c1Cl)N1CCC(Nc2ccccc2)C1 (stereo not shown) [Compound 599] , report its inhibition at 10 µM.
// result 91.1

// query # inhibition at 10 µM lookup, item O=C(c1cn2cc(-c3ccoc3)cc(C(F)(F)F)c2n1)N1CCC(c2cccc(F)c2)C1 (stereo not shown) [Compound 638]
// result 98.5

// query What inhibition at 10 µM value was documented for this compound, O=C(c1nc2c(C(F)(F)F)cc(-c3ccoc3)cn2c1Cl)N1CC[C@@H](c2ccccc2)C1 [Compound 262] ?
// result 97.3

// query Reported inhibition at 10 µM, compound O=C(c1nc2c(C(F)(F)F)cc(-c3ccoc3)cn2c1Cl)N1CCC(c2ccccc2F)CC1 [Compound 275] : ____
// result 97.8

// query Requested field: inhibition at 10 µM. Item: O=C(NCc1cccc(F)c1)c1nc2c(C(F)(F)F)cc(-c3ccoc3)cn2c1Cl [Compound 403]
// result 88.9

// query Fill blank: measured inhibition at 10 µM of the compound O=C(c1nc2c(C(F)(F)F)cc(-c3ccco3)cn2c1Cl)N1Cc2cccnc2C1 [Compound 217] is ____.
// result 38.8

// query Look up inhibition at 10 µM: O=C(c1nc2c(C(F)(F)F)cc(-c3cn[nH]c3)cn2c1Br)N1CC=C(c2cscn2)CC1 [Compound 609]
// result 94.1

// query Please report the recorded inhibition at 10 µM for O=C(c1nc2c(C(F)(F)F)cc(-c3coc(Cl)c3)cn2c1Cl)N1CCC(c2cccc(F)c2)C1 (stereo not shown) [Compound 633] .
// result 90.2

// query Give the measured inhibition at 10 µM of O=C(c1nc2c(C(F)(F)F)cc(-c3ccoc3)cn2c1Cl)N1CCN(c2nccs2)CC1 [Compound 536] .
// result 95.8

// query Consider the compound O=C(c1nc2c(C(F)(F)F)cc(-c3ccoc3)cn2c1Cl)N1CCN(c2ccccc2)CC1 [Compound 534] and give its measured inhibition at 10 µM.
// result 77.6

// query Entry O=C(c1nc2c(C(F)(F)F)cc(-c3ccoc3)cn2c1Cl)N1CC=C(c2cccc(F)c2)CC1 [Compound 576] : reported inhibition at 10 µM = ?
// result 82.6

// query Any idea what inhibition at 10 µM was measured for O=C(NCc1ccccc1F)c1nc2c(C(F)(F)F)cc(-c3ccoc3)cn2c1Cl [Compound 402] ?
// result 94.9

// query // lookup inhibition at 10 µM for O=C(NCc1cccs1)c1cc2cc(-c3ccccc3)cc(N3CCOCC3)n2n1 [Compound 148]
// result 27.7

// query I would be grateful if you could share the reported inhibition at 10 µM for O=C(c1nc2c(C(F)(F)F)cc(-c3ccoc3)cn2c1Cl)N1CCN(c2ccccn2)CC1 [Compound 532] .
// result 79.1

// query If you can, please state the reported inhibition at 10 µM value of O=C(NCc1cccs1)c1cc2cc(-c3ccccc3)cc(NCCO)n2n1 [Compound 154] .
// result 58.8

// query GET /values?readout=inhibition at 10 µM&item= CS(=O)(=O)NC1CN(C(=O)c2nc3c(C(F)(F)F)cc(-c4ccoc4)cn3c2Cl)C1 [Compound 491]
// result 92.4

// query Suppose we examine the compound CN(Cc1cccs1)C(=O)c1cc2cc(-c3ccccc3)cc(C(F)(F)F)n2n1 [Compound 147] ; what inhibition at 10 µM value has been reported?
// result 26.8
